All figures here come from patent US11285178B2.

# targetOrTestSystem: Glutamate, AMPA Site (Ionotropic)
# methodNotes: Radioligand binding assay
# testContext: dose response, AMPA binding; read-out: Ki
experimentalEndpoint: Ki (nM)
Supply the numeric figure in nM, leaving out any unit text.

Task item: Return reported Ki; argument: Cc1onc(O)c1CC(N)C(=O)O (racemic) [(+/−) AMPA HBr]
Reply: 30

====

# targetOrTestSystem: Glutamate, NMDA, Glycine (Strychnine-insensitive site) (Ionotropic) (Homo sapiens)
# Format: binding
# testContext: radioligand [^3H]-MDL-105,519; read-out: Ki of the Reference Compound
# Excerpt: Additional details regarding the binding inhibition experiments for each of the five above described receptors are provided in the following table. The ionotropic glutamate receptors, the NK2 receptor and the neurokinin 1 (NK1) receptor were used in additional receptor binding assays. […]
experimentalEndpoint: pKi
Convention used: pKi is expressed as -log10 of the molar concentration.

Task item: State the recorded pKi for this entry: `O=C(O)/C(=C/c1c(C(=O)O)[nH]c2cc(Cl)cc(Cl)c12)c1ccccc1`
Reply: 7.76

====

# targetOrTestSystem: Glutamate, NMDA, Glycine (Strychnine-insensitive site) (Ionotropic) (Homo sapiens, UniProt Q05586)
# Type: binding
# testContext: dose response, MDL-105,519 binding; read-out: Ki
experimentalEndpoint: pKi
Please note pKi is a logarithmic value: minus log10 of concentration in mol/L. Answer with that number alone.

Task item: What value of pKi has been reported for the following molecule? O=C(O)/C(=C/c1c(C(=O)O)[nH]c2cc(Cl)cc(Cl)c12)c1ccccc1 [MDL-105,519]
Reply: 7.63

====

# targetOrTestSystem: Glutamate, AMPA Site (Ionotropic)
# methodNotes: Radioligand binding assay
# testContext: Kd of the radioligand
experimentalEndpoint: pKd
Scale: negative log10 of molar concentration, which is what pKd denotes.

Task item: So what's the measured pKd for this one? Cc1o[nH]c(=O)c1CC(N)C(=O)O (stereo not shown) [[^3H]AMPA]
Reply: 7.55
